Assay: chemical genetic growth profiling, strain panel (AID 1159580);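 also: tested at 20 µM; growth read once vehicle control cultures reached saturation at 30 °C; 1 = growth at the plate median or of vehicle wells; lower values mean less growth of the strain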
Conditions: S. cerevisiae deletion strains, growth OD, locus YMR263W, strain SAP30, hits give low values
Hit rate of the full screen: of about 5,500 compounds, about 2,000 (36%) were called active. Not shown: some 18% with an inconclusive outcome. Some of the results follow.
Let's look at some compounds and their measured normalized growth.

{"structure as smiles": "COc1cc(OC)c2c3c1C(=O)c1c(OC)cc(C)c4c(OC)cc(c-3c14)C(C)(C)C2=O", "normalized growth": 1.02}
{"structure as smiles": "CCn1cnc2c(Nc3cccc(Cl)c3)nc(N[C@@H]3CCCC[C@@H]3N)nc21", "normalized growth": 1}
{"structure as smiles": "S=P(N1CC1)(N1CC1)N1CC1", "normalized growth": 1.02}
{"structure as smiles": "CCO/C([O-])=N/c1c[n+](N2CCOCC2)no1", "normalized growth": 0.98}
{"structure as smiles": "CCCCC[C@H](CC(=O)NO)C(=O)N[C@H](C(=O)N1CCC[C@H]1CO)C(C)C", "normalized growth": 1.03}
{"structure as smiles": "COc1cc([C@H]2Oc3cc([C@H]4Oc5cc(O)cc(O)c5C(=O)[C@@H]4O)ccc3O[C@@H]2CO)ccc1O", "normalized growth": 0.998}
{"structure as smiles": "O=C(NNc1c(Cl)cc(Cl)cc1Cl)NC(=O)c1ccccc1F", "normalized growth": 1.01}
{"structure as smiles": "O=C(Nc1ccccc1)NC1CCCC1", "normalized growth": 1.01}
{"structure as smiles": "CO[C@]12C[C@@H](COC(=O)c3cncc(Br)c3)CN(C)[C@@H]1Cc1cn(C)c3cccc2c13", "normalized growth": 0.997}
{"structure as smiles": "COC(=O)c1c(C)cc(OC(=O)c2c(C)cc(O)c(C=O)c2O)c(C)c1O", "normalized growth": 0.987}
{"structure as smiles": "Cc1c(S(=O)(=O)c2ccc(Cl)cc2)csc1S(=O)(=O)N/N=C\\c1c(Cl)cccc1Cl", "normalized growth": 0.984}
{"structure as smiles": "COc1cc(CC/C(C)=N/O)ccc1OCc1ccc(Cl)cc1Cl", "normalized growth": 0.912}
{"structure as smiles": "CCCn1c(=O)c2[nH]c(-c3ccc(OCC(=O)Nc4ccc(C#N)cc4)cc3)nc2n(CCC)c1=O", "normalized growth": 0.982}
{"structure as smiles": "NNC(=O)c1ccccc1O", "normalized growth": 1.01}
{"structure as smiles": "Cc1c(S(=O)(=O)c2ccc(Cl)cc2)csc1C(=O)Nc1ccc(N2CCOCC2)c(Cl)c1", "normalized growth": 1.03}

----------
Let's look at some compounds and their measured normalized growth.
Assay: chemical genetic growth profiling, strain panel (AID 1159580);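 also: tested at 20 µM; growth read once vehicle control cultures reached saturation at 30 °C; 1 = growth at the plate median or of vehicle wells; lower values mean less growth of the strain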
Conditions: S. cerevisiae deletion strains, growth OD, locus YHR079C, strain IRE1 (second series), hits give low values
In all, about 5,500 compounds went through this assay and about 2,000 (36%) were called active. Not shown: some 18% with an inconclusive outcome. The list shows a part of the results.
observable: normalized growth

{"compound": "COC(=O)CCC(=O)O[C@H]1CCC2(C)C(CCC3C2C(=O)[C@@H](O)C2(C)C3CC3OC4(CCC(C)CO4)[C@@H](C)C32)C1 (stereo partly specified)", "reading": 0.991}
{"compound": "OC1=Cc2c(O)cc(O)cc2OC1(O)c1ccc(O)c(O)c1 (stereo unspecified)", "reading": 0.995}
{"compound": "C=C[C@H]1CN2CC[C@H]1C[C@@H]2[C@H](O)c1ccnc2ccccc12", "reading": 0.979}
{"compound": "CO[C@]12C[C@@H](COC(=O)c3cncc(Br)c3)CN(C)[C@@H]1Cc1cn(C)c3cccc2c13", "reading": 1.01}
{"compound": "C=C1C2CC[C@@]3(C)[C@H](c4ccoc4)OC(=O)C[C@]13O[C@H]1CC(=O)C(C)(C)C(CC(=O)OC)[C@@]21C (stereo partly specified)", "reading": 0.998}
{"compound": "O=C(O)c1ccccc1C(=O)Nc1ccc(S(=O)(=O)Nc2nccs2)cc1", "reading": 0.995}

These measurements were taken from PubChem BioAssay AID1159580.
